EC50 by entry:
# Target entity: human recombinant mGluR5 (Homo sapiens, UniProt P41594)
# Construct: tetracycline removed 3-7 days before the assay
# Sequence (P41594 21-1212): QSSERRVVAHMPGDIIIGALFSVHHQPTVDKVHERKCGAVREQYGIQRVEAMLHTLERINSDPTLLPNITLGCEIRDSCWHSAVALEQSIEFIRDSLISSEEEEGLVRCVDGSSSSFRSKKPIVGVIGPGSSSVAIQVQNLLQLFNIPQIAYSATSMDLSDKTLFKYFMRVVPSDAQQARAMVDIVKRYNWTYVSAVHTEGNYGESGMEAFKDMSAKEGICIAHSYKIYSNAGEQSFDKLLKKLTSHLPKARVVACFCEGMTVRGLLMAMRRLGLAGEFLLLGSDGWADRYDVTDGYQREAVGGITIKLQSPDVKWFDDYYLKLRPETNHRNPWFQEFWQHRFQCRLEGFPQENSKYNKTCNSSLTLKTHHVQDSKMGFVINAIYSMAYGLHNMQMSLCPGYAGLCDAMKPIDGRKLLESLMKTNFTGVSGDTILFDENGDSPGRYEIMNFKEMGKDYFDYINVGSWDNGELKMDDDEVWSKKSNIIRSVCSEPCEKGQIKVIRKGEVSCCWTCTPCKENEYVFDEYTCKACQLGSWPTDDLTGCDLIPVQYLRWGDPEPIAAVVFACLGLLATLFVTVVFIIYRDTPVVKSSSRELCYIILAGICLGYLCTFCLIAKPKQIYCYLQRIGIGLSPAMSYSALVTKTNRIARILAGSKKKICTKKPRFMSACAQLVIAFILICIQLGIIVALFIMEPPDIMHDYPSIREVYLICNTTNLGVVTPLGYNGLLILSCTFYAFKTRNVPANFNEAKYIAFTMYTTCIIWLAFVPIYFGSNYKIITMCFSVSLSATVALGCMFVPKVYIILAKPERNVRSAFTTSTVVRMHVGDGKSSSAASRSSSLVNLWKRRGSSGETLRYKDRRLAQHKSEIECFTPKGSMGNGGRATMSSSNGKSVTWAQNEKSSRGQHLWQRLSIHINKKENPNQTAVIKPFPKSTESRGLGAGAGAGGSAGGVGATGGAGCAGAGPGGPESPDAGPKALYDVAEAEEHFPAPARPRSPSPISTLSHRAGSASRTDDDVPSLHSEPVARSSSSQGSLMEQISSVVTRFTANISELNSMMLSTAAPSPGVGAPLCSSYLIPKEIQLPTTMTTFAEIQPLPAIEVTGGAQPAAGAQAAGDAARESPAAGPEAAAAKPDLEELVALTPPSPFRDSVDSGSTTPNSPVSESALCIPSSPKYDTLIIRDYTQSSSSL
# Method summary: positive modulation of mGluR5, calcium based FLIPR assay in HEK 293 cells
# Particulars: HEK 293 cell line expressing human recombinant mGluR5; EC50 of the modulation of the glutamate response (glutamate approx. 5% basal stimulation); peak height of Ca release fluorescence signal
Numeric only. Scale: µM

Q: Entry under review: `COc1ccnc(N2CCN(C(=O)Cn3nc(-c4ccc(F)c(C)c4)nc3C(C)C)CC2)c1` . Reported EC50?
Ans: 0.896

Q: Entry under review: `O=C(Cn1nc(-c2ccc(F)cc2)nc1-c1ccc(F)cc1)N1CCN(c2cc(OCCCN3CCOCC3)ncn2)CC1` . Reported EC50?
Ans: 0.2

Q: Entry under review: `O=C(Cn1nc(-c2ccc(F)cn2)nc1-c1ccc(F)cc1)N1CCN(c2ccccn2)CC1` . Reported EC50?
Ans: 0.809

Next:
Q: Entry under review: `Cc1cc(-c2nc(C3CCCCC3)n(CC(=O)N3CCN(c4ncc(Cl)cn4)CC3)n2)ccc1F` . Reported EC50?
Ans: 0.229

Q: Entry under review: `CN(CCO)CCOc1cc(N2CCN(C(=O)Cn3nc(-c4ccc(F)cc4)nc3-c3ccc(F)cc3)CC2)ncn1` . Reported EC50?
Ans: 0.301

Q: Entry under review: `Cc1cc(-c2nc(-c3ccccc3)n(CC(=O)N3CCN(c4ncccn4)CC3)n2)ccc1F` . Reported EC50?
Ans: 0.011

Q: Entry under review: `Cc1ccnc(N2CCN(C(=O)Cn3nc(-c4ccc(F)cc4)nc3C3CCCCC3)CC2)c1` . Reported EC50?
Ans: 1.42

* * *

EC50 by entry:
# Target entity: human recombinant mGluR5 (Homo sapiens, UniProt P41594)
# Construct: expressed in transfected cells; host or cells: HEK 293 cell line cultured with tetracycline, hygromycin and geneticin; tetracycline removed 3-7 days before the assay
# Method summary: positive modulation of mGluR5, calcium based FLIPR assay in HEK 293 cells
# Particulars: HEK 293 cell line expressing human recombinant mGluR5; EC50 of the modulation of the glutamate response (glutamate approx. 5% basal stimulation); peak height of Ca release fluorescence signal
Numeric only. Scale: nM

Q: Entry under review: `COc1ccnc(N2CCN(C(=O)Cn3nc(-c4ccc(F)cc4)nc3-c3ccc(F)cc3)CC2)n1` . Reported EC50?
Ans: 67

Q: Entry under review: `Cc1ccnc(N2CCN(C(=O)Cn3nc(-c4ccccc4)nc3-c3ccccc3)CC2)c1` . Reported EC50?
Ans: 243

Q: Entry under review: `CN1CCN(CCOc2cc(N3CCN(C(=O)Cn4nc(-c5ccc(F)cc5)nc4-c4ccc(F)cc4)CC3)ncn2)CC1` . Reported EC50?
Ans: 523

Q: Entry under review: `O=C(Cn1nc(-c2ccc(F)cc2)nc1-c1ccc(F)cc1)N1CCN(c2ccc(Cl)nn2)CC1` . Reported EC50?
Ans: 166

Q: Entry under review: `CC(C)Oc1cc(N2CCN(C(=O)Cn3nc(-c4ccc(F)cc4)nc3-c3ccc(F)cc3)CC2)ncn1` . Reported EC50?
Ans: 153

Next:
Q: Entry under review: Cc1cc(-c2nc(C3CCCCC3C)n(CC(=O)N3CCN(c4ncccn4)CC3)n2)ccc1F (stereo not shown) . Reported EC50?
Ans: 392

Q: Entry under review: Cc1cc(-c2nc(C3CCC(C)CC3)n(CC(=O)N3CCN(c4ccccn4)CC3)n2)ccc1F (stereo not shown) . Reported EC50?
Ans: 1320

* * *

# Target entity: human recombinant mGluR5 (Homo sapiens)
# Construct: tetracycline removed 3-7 days before the assay
# Method summary: positive modulation of mGluR5, calcium based FLIPR assay in HEK 293 cells
# Particulars: HEK 293 cell line expressing human recombinant mGluR5; EC50 of the modulation of the glutamate response (glutamate approx. 5% basal stimulation); peak height of Ca release fluorescence signal
EC50 strictly under 300 nM means condition met; at 300 nM or over means condition not met.

Solved cases (5 shown):
Q: Check if EC50 falls below 300 nM for `CCCCCc1nc(-c2ccc(F)c(C)c2)nn1CC(=O)N1CCN(c2cc(OC)ncn2)CC1` .
Ans: condition met

Q: Check if EC50 falls below 300 nM for `COc1ccc(-c2nc(C3CCCCC3)n(CC(=O)N3CCN(c4cc(C)ccn4)CC3)n2)cc1` .
Ans: condition met

Q: Check if EC50 falls below 300 nM for `O=C(Cn1nc(-c2ccc(F)cc2)nc1-c1ccc(F)cc1)N1CCN(c2ccccc2F)CC1` .
Ans: condition not met

Q: Check if EC50 falls below 300 nM for `O=C(Cn1nc(-c2ccc(F)cc2)nc1-c1ccc(F)cc1)N1CCN(c2cc(Cl)ccn2)CC1` .
Ans: condition not met

Q: Check if EC50 falls below 300 nM for `COCc1cccc(-c2nc(-c3ccccc3)n(CC(=O)N3CCN(c4ncccn4)CC3)n2)c1` .
Ans: condition met

Next:
Q: Check if EC50 falls below 300 nM for `Nc1cc(N2CCN(C(=O)Cn3nc(-c4ccc(F)cc4)nc3-c3ccc(F)cc3)CC2)ncn1` .
Ans: condition not met

Q: Check if EC50 falls below 300 nM for `N#Cc1cccc(-c2nc(-c3ccccc3)n(CC(=O)N3CCN(c4ncccn4)CC3)n2)c1` .
Ans: condition met

* * *

# Target entity: human recombinant mGluR5 (Homo sapiens)
# Construct: tetracycline removed 3-7 days before the assay
# Method summary: positive modulation of mGluR5, calcium based FLIPR assay in HEK 293 cells
# Particulars: HEK 293 cell line expressing human recombinant mGluR5; EC50 of the modulation of the glutamate response (glutamate approx. 5% basal stimulation); peak height of Ca release fluorescence signal
Measure: EC50 (nM)
Numeric only. Scale: nM

Below, each entry is followed by its recorded EC50 result.
Q: Entry under review: COCCNc1cc(N2CCN(C(=O)Cn3nc(-c4ccc(F)cc4)nc3-c3ccc(F)cc3)CC2)ncn1 [Example 07.08.21.] . Reported EC50?
Ans: 201

Q: Entry under review: Cc1cc(-c2nc(C)n(CC(=O)N3CCN(c4ncccn4)CC3)n2)ccc1F [Example 07.04.097.] . Reported EC50?
Ans: 1190

Q: Entry under review: COc1ccc(-c2nc(-c3ccc(F)cc3)nn2CC(=O)N2CCN(c3cc(C)ccn3)CC2)cc1 [Example 07.04.041.] . Reported EC50?
Ans: 113

Q: Entry under review: COc1cc(N2CCN(C(=O)Cn3nc(-c4ccc(F)c(C)c4)nc3C(C)C)CC2)ncn1 [Example 07.04.086.] . Reported EC50?
Ans: 1170

Q: Entry under review: COc1cc(N2CCN(C(=O)Cn3nc(-c4ccc(F)cc4)nc3-c3ccc(F)c(OC)c3)CC2)ncn1 [Example 07.04.079.] . Reported EC50?
Ans: 1330

Next:
Q: Entry under review: COc1ccc(-c2nc(C3CCCCC3)n(CC(=O)N3CCN(c4cc(C)ccn4)CC3)n2)c(F)c1 [Example 07.04.021.] . Reported EC50?
Ans: 647

Q: Entry under review: O=C(Cn1nc(-c2ccccc2)nc1-c1ccccc1)N1CCN(c2ncccn2)CC1 [Example 07.04.018.] . Reported EC50?
Ans: 200

Q: Entry under review: O=C(Cn1nc(-c2ccccc2)nc1C1=CCCC1)N1CCN(c2ncccn2)CC1 [Example 07.10.23.] . Reported EC50?
Ans: 459

Q: Entry under review: CCc1cc(N2CCN(C(=O)Cn3nc(-c4ccc(F)cc4)nc3-c3ccc(F)cc3)CC2)ncn1 [Example 07.03.26.] . Reported EC50?
Ans: 177

Q: Entry under review: O=C(Cn1nc(-c2ccc(F)cc2)nc1-c1ccc(F)cc1)N1CCN(c2cc(OCCN3CCNC3=O)ncn2)CC1 [Example 07.09.18.] . Reported EC50?
Ans: 103

Q: Entry under review: COC[C@@H](C)Oc1cc(N2CCN(C(=O)Cn3nc(-c4ccc(F)cc4)nc3-c3ccc(F)cc3)CC2)ncn1 [Example 07.09.14.] . Reported EC50?
Ans: 38

Q: Entry under review: CCCc1nc(-c2ccc(F)c(C)c2)nn1CC(=O)N1CCN(c2ncccn2)CC1 [Example 07.04.085.] . Reported EC50?
Ans: 379

Q: Entry under review: Cc1cc(-c2nc(C3CCC(F)(F)CC3)n(CC(=O)N3CCN(c4ncccn4)CC3)n2)ccc1F [Example 07.04.144.] . Reported EC50?
Ans: 1270

Q: Entry under review: Cc1cc(-c2nc(C3CCCCC3)n(CC(=O)N3CCN(c4ccccn4)CC3)n2)ccc1F [Example 07.04.071.] . Reported EC50?
Ans: 347

* * *

# Target entity: human recombinant mGluR5 (Homo sapiens, UniProt P41594)
# Construct: tetracycline removed 3-7 days before the assay
# Method summary: positive modulation of mGluR5, calcium based FLIPR assay in HEK 293 cells
# Particulars: HEK 293 cell line expressing human recombinant mGluR5; EC50 of the modulation of the glutamate response (glutamate approx. 5% basal stimulation); peak height of Ca release fluorescence signal
pEC50 by entry:
Scale explanation: pEC50 corresponds to minus log10 of a concentration expressed in moles per litre.

Below, each entry is followed by its recorded pEC50 result.
Q: Entry under review: COCCN1CCN(c2cc(N3CCN(C(=O)Cn4nc(-c5ccc(F)cc5)nc4-c4ccc(F)cc4)CC3)ncn2)CC1 [Example 07.08.10.] . Reported pEC50?
Ans: 5.99

Q: Entry under review: O=C(Cn1nc(-c2ccc(F)cc2)nc1-c1ccc(F)cc1)N1CCN(c2cc(O[C@H]3CCOC3)ncn2)CC1 [Example 07.09.11.] . Reported pEC50?
Ans: 7.25

Q: Entry under review: CCC(C)c1nc(-c2ccc(F)c(C)c2)nn1CC(=O)N1CCN(c2ncccn2)CC1 (stereo not shown) [Example 07.04.101.] . Reported pEC50?
Ans: 6.53

Next:
Q: Entry under review: COc1cc(N2CCN(C(=O)Cn3nc(-c4ccc(F)c(C)c4)nc3C3CCCCC3)CC2)ncn1 [Example 07.04.065.] . Reported pEC50?
Ans: 6.53

Q: Entry under review: O=C(Cn1nc(-c2ccc(F)cc2)nc1-c1ccc(F)cc1)N1CCN(c2cc3ccccc3cn2)CC1 [Example 07.04.005.] . Reported pEC50?
Ans: 6.40

Q: Entry under review: COc1cc(N2CCN(C(=O)Cn3nc(-c4ccc(F)c(OC)c4)nc3-c3ccc(F)cc3)CC2)ncn1 [Example 07.04.158.] . Reported pEC50?
Ans: 7.57

Q: Entry under review: CC(C)CCN(C)c1cc(N2CCN(C(=O)Cn3nc(-c4ccc(F)cc4)nc3-c3ccc(F)cc3)CC2)ncn1 [Example 07.08.08.] . Reported pEC50?
Ans: 6.44
